// reported % GPCR activation compared to TPA per item
target: 348 GPCRs (Homo sapiens); assay: TGFα-shedding assay-based GPCR screening with chimeric Gα subunit proteins; format: cell-based; settings: SCTR (secretin receptor); 10µM, Favipiravir 100μM
Sequence (P47872 23-440): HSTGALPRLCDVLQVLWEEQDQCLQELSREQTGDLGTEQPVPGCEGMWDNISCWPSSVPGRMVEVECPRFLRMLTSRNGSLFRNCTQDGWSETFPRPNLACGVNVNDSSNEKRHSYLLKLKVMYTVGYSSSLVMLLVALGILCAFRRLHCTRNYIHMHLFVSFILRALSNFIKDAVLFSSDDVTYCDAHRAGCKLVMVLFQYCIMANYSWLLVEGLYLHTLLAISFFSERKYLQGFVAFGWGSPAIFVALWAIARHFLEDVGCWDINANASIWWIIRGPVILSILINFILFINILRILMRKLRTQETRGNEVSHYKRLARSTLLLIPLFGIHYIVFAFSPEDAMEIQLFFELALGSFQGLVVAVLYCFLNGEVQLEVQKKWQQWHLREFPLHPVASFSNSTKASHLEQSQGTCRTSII
Answer with a number only, understood to be in %.

- N#C[C@@]1(c2ccc3c(N)ncnn23)O[C@H](CO)[C@@H](O)[C@H]1O [GS441524]: 0.8944
- CC(C)OC(=O)[C@H](C)N[P@](=O)(OC[C@H]1O[C@@H](n2ccc(=O)[nH]c2=O)[C@](C)(F)[C@@H]1O)Oc1ccccc1 [sofosbuvir]: 0.153
- CC(C)C(=O)OC[C@H]1O[C@@H](n2ccc(NO)nc2=O)[C@H](O)[C@@H]1O [molnupiravir]: -0.08366
- NC(=O)c1nc(F)cnc1O [favipiravir, 6-fluoro-3-hydroxy-2-pyrazinecarboxamide]: -0.5125

Here is another compound to look at.
Just so you know, measured % GPCR activation compared to TPA for CCC(CC)COC(=O)[C@H](C)N[P@](=O)(OC[C@H]1O[C@@](C#N)(c2ccc3c(N)ncnn23)[C@H](O)[C@@H]1O)Oc1ccccc1 [remdesivir] came out at -0.9507
